Field: pEC50. Provide a value for each of the binders that follow.
# TEST TARGET: human Proprotein Convertase Subtilisin-like/Kexin type 9 (UniProt Q8NBP7 31-692)
# Sequence (Q8NBP7 31-692): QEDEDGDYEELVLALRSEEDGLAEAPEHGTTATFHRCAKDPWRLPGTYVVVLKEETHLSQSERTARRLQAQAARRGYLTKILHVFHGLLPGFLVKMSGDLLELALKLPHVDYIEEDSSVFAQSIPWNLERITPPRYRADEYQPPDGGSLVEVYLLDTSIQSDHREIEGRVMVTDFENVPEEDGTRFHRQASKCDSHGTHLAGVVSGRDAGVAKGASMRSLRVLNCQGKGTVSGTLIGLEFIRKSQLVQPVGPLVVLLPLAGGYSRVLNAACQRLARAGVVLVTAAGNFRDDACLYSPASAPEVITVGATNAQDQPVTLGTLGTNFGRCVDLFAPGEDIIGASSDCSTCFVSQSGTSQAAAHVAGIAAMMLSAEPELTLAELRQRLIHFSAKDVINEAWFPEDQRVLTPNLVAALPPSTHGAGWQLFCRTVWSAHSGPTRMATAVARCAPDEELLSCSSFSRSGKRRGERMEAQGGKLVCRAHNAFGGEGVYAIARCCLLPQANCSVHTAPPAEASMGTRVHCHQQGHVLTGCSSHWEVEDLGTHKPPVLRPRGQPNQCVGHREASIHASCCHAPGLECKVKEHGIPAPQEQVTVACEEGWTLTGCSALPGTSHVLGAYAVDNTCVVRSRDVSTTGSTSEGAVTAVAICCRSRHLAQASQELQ
# TEST DETAILS: ELISA
Please note pEC50 is a logarithmic value: minus log10 of concentration in mol/L. Answer with that number alone.

Which pEC50 is reported for this binder? Ab9 (antibody, V domains shown) VH: QSVEESGGRLVTPGTPLTLTCTVSGIDLSSYAMGWVRQAPGKGLEYIGIIVSYGPTYYASWAKGRFTISKTSTTVDLKITSPTAEDTATYFCARDLDANSSGYYGCFNIWGQGTLVTVSS VL: AVVLTQTPASVSAAVGGTVTIKCQASQSISTALAWYQQKPGQPPKLLIYAASPLASGVSSRFKSSGSGTEFTLTISDLECADAATYYCQSYYGSSNIAFGGGTELEILR
10.01

Then this binder: Ab6 (antibody, V domains shown) VH: QEQLEESGGDLVKPEGSLTLTCTASGFSFSSNYWICWVRQAPGKGLEWIGCIRDGGGTYYASWAKGRLTISMTSSTTVTLQLNSLTAADTATYFCASDINDGWLGQFNLWGPGTLVTVSS VL: DIVMTQTPASVEVAVGGTVTIKCQASQSISAYLAWYQQKPGQPPKLLIYRAYTLASGVPSRFKGSGSGTQFTLTISDLECADAATYYCQSYYSVTTNTYGNTFGGGTEVVVKR
9.93

Then this binder: Ab5 (antibody, V domains shown) VH: QSVEESGGRLVTPGTPLTLTCTVSGFSLSSYAMSWVRQAPGKGLEWIGIISNSGTTYYASWAKGRFTISKTSTTVDLKITSPTTEDTATYFCARGIYWYWRVFNLWGPGTLVTVSS VL: AVLTQTPSPVSAAVGGTVTINCQASQSVYNNLLSWYQQKPGQPPKLLIYDASNLASGVPDRFSGSGSGTQFTLTISGVQCDDAATYYCLGGYDDDADNAFGGGTEVVVKR
9.93

Then this binder: Ab8 (antibody, V domains shown) VH: QEQLVESGGGLVQPEGSLTLTCTASGFSFTSDYYMCWVRQAPGKGLEWIGCISTGDGSTYYASWAKGRFTISKPSSTTVTLQMTRLTAADTATYFCARDRYYSYAYGAYVYASDLWGPGTLVTVSS VL: DIVMTQTPASVSEPVGGTVTINCQASESIRNYLSWYQQKPGQRPKLLIYGASTLASGVPSRFKGSGSGTDFTLTISDLECADAATYYCQSNYGISSRSYVNGFGGGTEVVVKR
10.06
